Data provenance: patent US11319299B2

# assayed.target: UniProtKB P61964
# procedure.summary: Surface Plasmon Resonance (SPR) assay, KD and residence time
# Assay type: binding
# conditions.used: surface plasmon resonance (SPR) assay; read-out: WDR5 binding affinity (KD)
pKd: −log10 of the molar value.
property.name: pKd

C[C@@H]1CN(c2cc(F)c(-c3cnc(N4CCOCC4)nc3)cc2NC(=O)c2ccc(F)c(F)c2)C[C@H](C)N1C [Example 111] | 7.15
C[C@@H]1CN(c2cc(F)c(-c3cnc(N4CCOCC4)nc3)cc2NC(=O)c2cc(O)cc(F)c2F)C[C@H](C)N1C [Example 291] | 8.38
COc1ccc(C(=O)Nc2cc(-c3cnc(N4CCOCC4)nc3)c(F)cc2N2C[C@@H](C)N(C)[C@@H](C)C2)cc1 [Example 106] | 5.27
CC(=O)Nc1cc(C(F)(F)F)c(C(=O)Nc2cc(-c3cnc(N4CCOCC4)nc3)c(F)cc2N2C[C@@H](C)N(C)[C@@H](C)C2)cn1 [Example 27] | 6.53
COc1cnc(N2CCC=C(c3cc(NC(=O)c4c[nH]c(=O)cc4C(F)(F)F)c(N4C[C@@H](C)N(C)[C@@H](C)C4)cc3F)C2)nc1 [Example 375] | 9.16
C[C@@H]1CN(c2cc(F)c(C3=CCOCC3)cc2NC(=O)c2c[nH]c(=O)cc2C(F)(F)F)C[C@H](C)N1C [Example 94] | 8.39
C[C@@H]1CN(c2ncc(-c3cc(NC(=O)c4c[nH]c(=O)cc4C(F)(F)F)c(N4CCN(C)[C@H](C)C4)cc3F)cn2)CCO1 (stereo in doubt) [Example 389] | 9.28
CN(C)[C@@H]1CCN(c2cc(F)c(-c3ccc(N4CCOCC4)nc3)cc2NC(=O)c2c[nH]c(=O)cc2C(F)(F)F)C1 [Example 234] | 8.73
CC1CN(c2cc(F)c(-c3cnc(N4CCOCC4)nc3)cc2NC(=O)c2n[nH]cc2Cl)CCN1C (stereo in doubt) [Example 183] | 6.95
C[C@@H]1CN(c2cc(F)c(C3=CCN(Cc4ccc(F)cc4)CC3)cc2NC(=O)c2c[nH]c(=O)cc2C(F)(F)F)C[C@H](C)N1C [Example 153] | 8.97
C[C@@H]1CN(c2cc(F)c(-c3ccnc(OCC4CC4)c3)cc2NC(=O)c2c[nH]c(=O)cc2C(F)(F)F)C[C@H](C)N1C [Example 66] | 8.94
C[C@@H]1CN(c2cc(F)c(-c3cnc(N4CCOCC4)nc3)cc2NC(=O)c2cccc(Cl)c2Cl)C[C@H](C)N1C [Example 213] | 8.16
CC1CN(c2cc(F)c(-c3cnc(N4CCOCC4)nc3)cc2NC(=O)c2cnn(C)c2)CCN1C (stereo in doubt) [Example 121] | 7.48
C[C@@H]1CN(c2cc(F)c(-c3cnc(N4CCOCC4)nc3)cc2NC(=O)c2cc(F)cc(Cl)c2)C[C@H](C)N1C [Example 159] | 7.54
CC1CN(c2cc(F)c(-c3cnc(N(C)C4CCOCC4)nc3)cc2NC(=O)c2c[nH]c(=O)cc2C(F)(F)F)CCN1C (stereo in doubt) [Example 370] | 9.06
COc1ccccc1C(=O)Nc1cc(-c2cnc(N3CCOCC3)nc2)c(F)cc1N1C[C@@H](C)N(C)[C@@H](C)C1 [Example 86] | 6.69
C[C@@H]1CN(c2cc(F)c(-c3cnc(N4CCOCC4)nc3)cc2NC(=O)c2ccc(F)cc2C(F)(F)F)C[C@H](C)N1 [Example 364] | 8.23
CC1CN(c2cc(F)c(-c3ccc(N4CCOCC4)nc3)cc2NC(=O)c2c[nH]c(=O)cc2C(F)(F)F)CCN1C (stereo in doubt) [Example 239] | 8.97
C[C@@H]1CN(c2cc(F)c(C3=CCN(Cc4ccc(N5CCOCC5)cc4)CC3)cc2NC(=O)c2c[nH]c(=O)cc2C(F)(F)F)C[C@H](C)N1C [Example 165] | 8.20
CC1CN(c2cc(F)c(-c3cnc(N4CCOCC4)nc3)cc2NC(=O)c2nn(C)c3ccccc23)CCN1C (stereo in doubt) [Example 116] | 7.11
C[C@@H]1CN(c2cc(F)c(-c3ccc(OCC4CC4)c(Cl)c3)cc2NC(=O)c2c[nH]c(=O)cc2C(F)(F)F)C[C@H](C)N1C [Example 92] | 7.96
CC1CN(c2cc(F)c(-c3ccc(N4CCN(C)CC4)cc3)cc2NC(=O)c2cn(C)c(=O)cc2C(F)(F)F)CCN1C (stereo in doubt) [Example 302] | 8.27
CC1CN(c2cc(F)c(-c3cccc(CN(C)C4COC4)c3)cc2NC(=O)c2c[nH]c(=O)cc2C(F)(F)F)CCN1C (stereo in doubt) [Example 214] | 8.67
C[C@@H]1CN(c2cc(F)c(-c3ccc(N4CCOCC4)c(F)c3)cc2NC(=O)c2c[nH]c(=O)cc2C(F)(F)F)C[C@H](C)N1C [Example 124] | 9.36
C[C@@H]1CN(c2cc(F)c(-c3cnc(N4CCOCC4)nc3)cc2NC(=O)c2n[nH]c(=O)cc2C(F)(F)F)C[C@H](C)N1C [Example 77] | 8.35
